The listing below reports GI50 for compounds tested on RPMI-8226 leukemia.
readout.name: GI50

compound	obs.value
Clc1nc(Cl)c2ncn(CC#CCn3cnc4c(Cl)nc(Cl)nc43)c2n1	2.09 µM
CC(C)OC(=O)Nc1ccc(-c2nc(-c3cccc(OCCN4CCOCC4)c3)c(-c3ccnc(Br)c3)[nH]2)cc1	0.549 µM
C=C(CN1CCc2ccccc2C1)c1ccc(CCC(=O)Nc2ccccc2N)cc1	14.8 µM
CCOC(=O)Nc1nc2cc(OC)c(OC)c(OC)c2s1	> 100 µM
C=CCSSC1N=CNc2nc[nH]c21 (stereo not given)	1.44 µM
COc1ccc(/C(COc2ccc3c(c2)oc(=O)c2cc(OC)ccc23)=N/O)cc1	5.44 µM
O=C1C=C(Nc2ccc([N+](=O)[O-])cc2)c2ccccc2C1=O	3.37 µM
Cn1cc(C2=C(c3cn(C)c4ccc(OCc5ccccc5)cc34)C(=O)NC2=O)c2ccccc21	> 25 µM
Clc1ccc(-c2ccc(CNCC3CCNCC3)o2)c(-c2ccccc2)c1	1.3 µM
NC1CCCCC1N.O=NN1CCCCCC1(P(=O)([O-])[O-])P(=O)([O-])[O-].[Na+].[Pt+2]	> 100 µM
